# protocol_text: BET inhibitor-based combinations targeting novel dependencies in MECOM-rearranged (r) AML: UCSD-AML1 cell line (AID 2202235); further: nearly all actives have a fitted effect of over 40% in size; further: potency means the concentration at half of the fitted maximal effect
# setup_conditions: UCSD-AML1 AML cells viability, CellTiter-Glo, 48 h; series mostly up to 46 µM
Records with an inconclusive call do not appear. Calls of active or inactive are those of the source. The call rests on the fitted dose curve; in most records, active means well fitted inhibition curve with a large enough effect; inconclusive means small, poorly fitted or top-dose-only effect; inactive means no such curve, though single readings can be large or run the other way.
parameter_measured: Potency

c1cn2cc(-c3ccc4cn[nH]c4c3)nc(Nc3ccc(N4CCOCC4)cc3)c2n1; 10.5 µM (active)
COc1c(C)c2c(c(O)c1C/C=C(\C)CCC(=O)O)C(=O)OC2; 0.833 µM (active)
CS(=O)(=O)c1ccc(Oc2cc(F)cc(C#N)c2)c2c1[C@H](O)C(F)(F)C2; inactive
Cn1cc(-c2ccc3nnc(C(F)(F)c4ccc5ncccc5c4)n3n2)cn1; inactive
CCOC(=O)C1=C(O)C(=O)N(Cc2ccccc2)C1; inactive

Prompt: # Potency lookup, item Cc1cnc(Nc2ccc(F)cc2Cl)nc1-c1c[nH]c(C(=O)N[C@H](CO)c2cccc(Cl)c2)c1
Completion: 20.9 µM (active)

Prompt: # Potency lookup, item O=C(Nc1cccnn1)N1CCC(=Cc2cccc(Oc3ccc(C(F)(F)F)cn3)c2)CC1
Completion: inactive

Prompt: # Potency lookup, item COc1ccc(S(=O)(=O)Nc2cc(-c3c(O)ccc4ccccc34)c(O)c3ccccc23)cc1
Completion: 3.72 µM (active)

Prompt: # Potency lookup, item CN(C)C(=O)c1ccc(S(=O)(=O)c2ccc(NC(=O)[C@@](C)(O)C(F)(F)F)c(Cl)c2)cc1
Completion: inactive

Prompt: # Potency lookup, item O=C(NOCC1CC1)c1ccc(F)c(F)c1Nc1ccc(I)cc1Cl
Completion: 16.6 µM (active)

Prompt: # Potency lookup, item CN1CCCN=C1/C=C/c1cccs1
Completion: 2.95 µM (active)

Prompt: # Potency lookup, item CCOC(=O)[C@H](CCc1ccccc1)N[C@@H](C)C(=O)N1CCC[C@H]1C(=O)O
Completion: inactive

Prompt: # Potency lookup, item CC[C@]1(O)CC2CN(CCc3c([nH]c4ccccc34)[C@@](C(=O)OC)(c3cc4c(cc3OC)N(C)[C@H]3[C@@](O)(C(=O)OC)[C@H](OC(C)=O)[C@]5(CC)C=CCN6CC[C@]43[C@@H]65)C2)C1 (stereo partly specified)
Completion: 0.263 µM (active)

Prompt: # Potency lookup, item Cn1c2cc(S(C)=O)sc2c2cnn(Cc3cccc(N)c3)c(=O)c21 (stereo unspecified)
Completion: inactive

Prompt: # Potency lookup, item CN1CCC(=C2c3ccccc3CC(=O)c3sccc32)CC1
Completion: inactive

====

# protocol_text: BET inhibitor-based combinations targeting novel dependencies in MECOM-rearranged (r) AML: HNT-34 cell line (AID 2202234); further: nearly all actives have a fitted effect of over 35% in size
# setup_conditions: HNT-34 AML viability, CellTiter-Glo luminescence, 48 h; series mostly up to 46 µM
Inconclusive results are not listed. Activity calls are given as the source filed them. The call rests on the fitted dose curve; in most records, active means well fitted inhibition curve with a large enough effect; inconclusive means small, poorly fitted or top-dose-only effect; inactive means no such curve, though single readings can be large or run the other way.
Just give me one of these, please: yes (1) (active), no (0) (inactive)

Example cases with answers are listed next.
O=C(O)c1cc(=O)c2c(OCC(O)COc3cccc4oc(C(=O)O)cc(=O)c34)cccc2o1; no (0)
Cn1ncnc1[C@H]1c2n[nH]c(=O)c3cc(F)cc(c23)N[C@@H]1c1ccc(F)cc1; yes (1)
C[C@@H](CN1CC(=O)NC(=O)C1)N1CC(=O)NC(=O)C1; no (0)

# next compound below
Prompt: Please indicate how the test categorized C=C(C)[C@@H]1CC[C@]2(C)CC[C@]3(C)[C@H](CC[C@@H]4[C@@]5(C)CC[C@H](O)C(C)(C)[C@H]5CC[C@]43C)[C@@H]12 .
Completion: no (0)
